Measurement type: melting point

[
  {
    "Compound": "CC1(C)CC(=C(c2ccc(O)cc2)c2ccc(C#CCCC(=O)O)cc2)CC(C)(C)C1",
    "melting point": "233 to 234 °C"
  },
  {
    "Compound": "COc1cc(/C=C\\c2ccc([N+](=O)[O-])cc2)cc(OC)c1OC",
    "melting point": "140 to 142 °C"
  },
  {
    "Compound": "Cn1cnnc1C(O)(c1ccc(I)cc1)c1ccc2c(c1)c(-c1cccc(Cl)c1)nc1nnnn12 (stereo not drawn)",
    "melting point": "228 °C"
  },
  {
    "Compound": "CCCN1C(=O)c2ccccc2C1(SCc1ccccc1)c1ccc(Cl)cc1 (stereo not drawn)",
    "melting point": "132 to 133 °C"
  },
  {
    "Compound": "Cc1nnc2c(NC3CCCC3)nc3ccccc3n12",
    "melting point": "196 to 198 °C"
  }
]

In: May I ask what melting point has been recorded for `O=C1Cc2cc(NC(=O)C(=O)N3CCC(Oc4ccc(F)cc4)CC3)ccc2N1` ?
Out: 147 to 149 °C

In: May I ask what melting point has been recorded for `NC(=O)[C@@H](CCC(F)(F)F)N(Cc1ccc(-c2ncon2)cc1F)S(=O)(=O)c1ccc(Cl)cc1` ?
Out: 66 to 68 °C

In: May I ask what melting point has been recorded for `CC(C)c1c(CO)c(-c2ccc(F)cc2)n2ccccc12` ?
Out: 94 to 95 °C

###

melting point values for the compounds below.

[
  {
    "Compound": "CC(C)CN1CCCC[C@H]1CNc1nc(Oc2cccc3[nH]c(=O)c(N)nc23)cc(-c2ccc(C(F)(F)F)cc2)n1",
    "melting point": "228 °C"
  },
  {
    "Compound": "CCOCc1nc2c(N)nc3cc(-c4cccnc4)ccc3c2n1Cc1ccc(CNS(C)(=O)=O)cc1",
    "melting point": "228 to 229 °C"
  },
  {
    "Compound": "CC(C)(C)OC(=O)Nc1ccc(I)cc1",
    "melting point": "148 to 149 °C"
  },
  {
    "Compound": "CCc1nc2c3c(c(C(=O)N(C)C)c(-c4ccccc4)c2n1C)CCCO3",
    "melting point": "195 to 197 °C"
  }
]

In: May I ask what melting point has been recorded for `CC(=O)C1=Cc2ccccc2NN=C1` ?
Out: 66 to 68 °C

In: May I ask what melting point has been recorded for Cn1c(=O)n(CCCC(NS(=O)(=O)c2ccc(-c3ccc(Cl)cc3)cc2)C(=O)NO)c(=O)c2ccccc21 (stereo unspecified) ?
Out: 235 °C

###

melting point values for the compounds below.

Below, each entry is followed by its recorded melting point result.
[
  {
    "Compound": "O=C(CC1c2ccccc2S(=O)(=O)C1c1ccccc1)NO (stereo not drawn)",
    "Value measured": "113 to 114 °C"
  },
  {
    "Compound": "CCOC(=O)CC[C@H](NC(=O)c1ccc(CCC2CNc3nc(NC(=O)C(C)(C)C)nc(O)c3C2)cc1)C(=O)OCC (stereo partly drawn)",
    "Value measured": "> 250 °C"
  }
]

Turning to the following compound.
In: May I ask what melting point has been recorded for CCOC(=O)Oc1ccc(S(=O)(=O)N2c3cc(F)ccc3-n3cccc3C2CC)cc1 (stereo not drawn) ?
Out: 96 to 97 °C

###

melting point values for the compounds below.

[
  {
    "Compound": "O=C(NCc1ccc(F)cc1)c1ccnc(N2CCN(Cc3ccc(F)cc3F)C2=O)c1",
    "melting point": "171 to 173 °C"
  },
  {
    "Compound": "CSC(=NC#N)N(C)N=Cc1ccccc1",
    "melting point": "132 to 133 °C"
  },
  {
    "Compound": "Cn1c(=O)c2c(ncn2CCCOS(C)(=O)=O)n(C)c1=O",
    "melting point": "112 to 113 °C"
  },
  {
    "Compound": "CCS(=O)c1cn(C)cc(-c2cccc(C(F)(F)F)c2)c1=O (stereo unspecified)",
    "melting point": "146 to 148 °C"
  },
  {
    "Compound": "Oc1c(CN2CCCC2)cc(Nc2ccnc3cc(C(F)(F)F)ccc23)cc1CN1CCCC1",
    "melting point": "56 to 58 °C"
  },
  {
    "Compound": "CN(C)C(=O)Oc1ccc(C[C@H](NC(=O)Nc2ccccc2S(=O)(=O)c2ccccc2)C(=O)O)cc1",
    "melting point": "115 °C"
  },
  {
    "Compound": "CC(C)(C)Nc1ccncc1NC(=S)NC1CCCCC1",
    "melting point": "216 to 218 °C"
  },
  {
    "Compound": "Cc1cc(-c2nnc3c4cccnc4c(OCc4ncnn4C)nn23)no1",
    "melting point": "255 to 257 °C"
  },
  {
    "Compound": "O=C1NCC=Cc2c1[nH]c(Br)c2Br",
    "melting point": "170 to 175 °C"
  },
  {
    "Compound": "CC(=O)OC[C@H]1O[C@@H]2[C@@H](Sc3ccccc3N2C(=O)c2ccccc2)[C@@H](OC(C)=O)[C@@H]1OC(C)=O",
    "melting point": "154 to 155 °C"
  }
]

In: May I ask what melting point has been recorded for `Cc1[nH]c(N)c(C)c1-c1ccnc(Nc2ccc(F)cc2)n1` ?
Out: 227 to 231 °C

In: May I ask what melting point has been recorded for C=CC(C)(O)C=CC1=C(C)C(=O)C(OC(C)(C)OC)CC1(C)C (stereo unspecified) ?
Out: 47.5 to 49 °C

In: May I ask what melting point has been recorded for `COc1cc([N+](=O)[O-])c(CCCCC(=O)O)c([N+](=O)[O-])c1O` ?
Out: 168 to 170 °C

In: May I ask what melting point has been recorded for `N#CC(C#N)=C(NCC(=O)O)Nc1cc(Cl)cc(Cl)c1` ?
Out: 103 °C

In: May I ask what melting point has been recorded for `O=C(O)c1cccc(-c2ccc3c(c2)N(Cc2cc(Cl)ccc2Cl)CC3)c1` ?
Out: 198 to 199 °C

In: May I ask what melting point has been recorded for `CON(C)C(=O)Nc1ccc(OCCc2ccc(C)cc2)cc1` ?
Out: 82 to 83 °C

###

melting point values for the molecules below.

Below, each entry is followed by its recorded melting point result.
[
  {
    "Molecule": "CC12CCCCC1CCC1C2CCC2(C)C(C(O)c3ccccc3)CCC12 (stereo unspecified)",
    "Value measured": "129 to 130 °C"
  },
  {
    "Molecule": "COCCCn1c(CO)cc2c3c(c(-c4ccccc4Cl)cc21)C(=O)NC3=O",
    "Value measured": "187 to 189 °C"
  },
  {
    "Molecule": "Clc1ccc(N2C3CCC2CN(Cc2ccccc2)C3)cc1",
    "Value measured": "115 to 117 °C"
  }
]

In: May I ask what melting point has been recorded for CCOC(=O)COc1ccc(OCC)cc1C(Nc1ccc(C(=N)NC(=O)OC(C)(C)C)cc1)C(=O)OCC (racemic) ?
Out: 241 °C

In: May I ask what melting point has been recorded for `O=[N+]([O-])c1cccc(-c2csc(Nc3ccccc3C(F)(F)F)n2)c1` ?
Out: 182 °C

In: May I ask what melting point has been recorded for `Cc1cc(NC(=O)c2cnn(-c3ccc(Cl)cc3)c2C)ccc1N1CCC(N2CCOCC2)CC1` ?
Out: 235 to 245 °C

###

melting point values for the molecules below.

Below, each entry is followed by its recorded melting point result.
[
  {
    "Molecule": "O=CN(O)[C@@H](CCCO)CS(=O)(=O)c1ccc(Oc2ccc(OC(F)(F)F)cc2)cc1",
    "Measurement type": "melting point",
    "Value measured": "85 to 86 °C"
  },
  {
    "Molecule": "COc1ccc(Nc2nc(N3CCOCC3)nc(-n3c(C(F)F)nc4c(OC)cccc43)n2)cn1",
    "Measurement type": "melting point",
    "Value measured": "201 to 202 °C"
  },
  {
    "Molecule": "Nc1nc(N)c2ncn(C3COC(CO)O3)c2n1 (single isomer, unassigned; (-))",
    "Measurement type": "melting point",
    "Value measured": "237 to 239 °C"
  },
  {
    "Molecule": "Cn1cc(Br)c(=O)c(-c2cccc(C(F)(F)F)c2)c1",
    "Measurement type": "melting point",
    "Value measured": "167 to 169 °C"
  },
  {
    "Molecule": "COC1(C#Cc2ncn3c2CN(C)C(=O)c2c(Cl)cccc2-3)CCCC1",
    "Measurement type": "melting point",
    "Value measured": "174 to 175 °C"
  },
  {
    "Molecule": "CCNc1ncn(-c2ccccc2C)c(=O)n1",
    "Measurement type": "melting point",
    "Value measured": "208 to 210 °C"
  }
]

In: May I ask what melting point has been recorded for `CCOC(=O)c1cc2c(Cl)ccc3c2n1CCCC=C3` ?
Out: 89 to 90 °C

In: May I ask what melting point has been recorded for `C=C1C[C@@H]2C(=O)NC(=O)[C@@H]2C1` ?
Out: 135 to 137 °C

In: May I ask what melting point has been recorded for `COc1ccc(-c2ccnc(N3CCN(c4c(C)c(C)c5c(c4C)CC(C)(C)O5)CC3)n2)cc1` ?
Out: 156 to 159 °C

In: May I ask what melting point has been recorded for `COc1cc2c(cc1O)[nH]c1cc(-c3ccccc3Cl)c3c(c12)C(=O)NC3=O` ?
Out: 194 to 196 °C
